Target: BtProRS2 (Bacillus thuringiensis, UniProt Q6HNZ7)
Sequence (Q6HNZ7 whole entry): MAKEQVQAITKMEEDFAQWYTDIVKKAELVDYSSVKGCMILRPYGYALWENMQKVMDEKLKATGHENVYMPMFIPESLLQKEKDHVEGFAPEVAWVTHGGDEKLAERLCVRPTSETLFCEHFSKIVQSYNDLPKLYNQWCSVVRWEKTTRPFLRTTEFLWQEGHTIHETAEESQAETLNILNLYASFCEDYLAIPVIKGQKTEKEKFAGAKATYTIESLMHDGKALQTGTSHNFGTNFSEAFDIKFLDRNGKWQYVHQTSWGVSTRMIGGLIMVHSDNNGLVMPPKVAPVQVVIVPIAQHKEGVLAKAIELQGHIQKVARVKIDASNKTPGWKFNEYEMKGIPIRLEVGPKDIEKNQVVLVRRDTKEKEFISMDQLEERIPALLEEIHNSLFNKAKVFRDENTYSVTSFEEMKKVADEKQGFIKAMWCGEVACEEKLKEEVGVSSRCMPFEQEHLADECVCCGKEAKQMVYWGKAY
Test: HF inhibition assay
Type: biochemical
assay endpoint: pIC50
Formally, pIC50 is defined as -log10 of the concentration c, with c in mol/L.

So what's the measured pIC50 for this one? O=C(CC1NCCCC1O)Cn1cnc2cc(Br)c(Cl)cc2c1=O (stereo not shown) [HF, halofuginone]
6.77

###

System: total cellular extracts of B. thuringiensis
Test: HF inhibition assay with total cellular extracts
Type: biochemical, Bacillus thuringiensis
Settings: 3 μg of total cellular extracts in 50-μl aminoacylation buffer, 30°C, 10 min
assay endpoint: IC50

So what's the measured IC50 for this one? O=C(CC1NCCCC1O)Cn1cnc2cc(Br)c(Cl)cc2c1=O (stereo not shown)
~400 nM
